Values compiled from PubChem BioAssay (NCI).

Field: growth. Provide a value for each of the compounds that follow.
- Test system: ACHN renal
- assay-remarks: NCI-60 one-dose screen, 48 h (100 = growth as untreated, 0 = no growth, -100 = all killed)
- test-context: 10 µM unless noted
The panel holds about 83,000 compounds, 20% with a hit somewhere; the sample as a whole holds those more often.
Answers are plain numbers, in %.

These solved cases illustrate the format of a correct answer.
CCn1c(=O)c2c(=O)c3c4c(oc3oc2c2ccccc21)C(=O)c1ccccc1C4=O
79.6
OC1CC2c3ccccc3C1c1ccccc12 (centres undefined)
111

Record growth per entry; entries follow.
1. O=S(=O)(NCCCNc1cc(-c2cn(-c3ccccc3)nc2-c2cccc(O)c2)ccn1)c1ccc(C(F)(F)F)cc1
2. COC(=O)CCCCCN=Cc1c(O)c(O)c(C(C)C)c2cc(C)c(-c3c(C)cc4c(C(C)C)c(O)c(O)c(C=NCCCCCC(=O)OC)c4c3O)c(O)c12

1. 31.5
2. 15.5

----------
- Test system: MALME-3M melanoma
- assay-remarks: NCI-60 one-dose screen, 48 h
- test-context: 10 µM unless noted
The panel holds about 83,000 compounds, 20% with a hit somewhere; the sample as a whole holds those more often. Active and inactive are the calls of the source. How the source made its calls: active means growth percent below 10; inactive means the rest.
Output constraint: value belongs to active, inactive

Some solved cases for reference:
CC(C)(C)OC(=O)N1C/C(=C\c2cccs2)C(=O)/C(=C/c2cccs2)C1
inactive
CC1(C)OC2COC3(C(=O)O)OC(C)(C)OC3C2O1 (stereo not given)
inactive
Cc1oc2ncnc(Nc3ccccc3)c2c1C(=O)NCCO
inactive

Dear all, I need the recorded test outcome for CCCCCC(=O)OCc1ccccc1 , thank you.
inactive

Dear all, I need the recorded test outcome for COc1ccc(NC(=O)CSc2nc3ccccc3c(=O)n2Cc2cc(OC)c(OC)c(OC)c2)cc1 , thank you.
inactive

Dear all, I need the recorded test outcome for O=C1Nc2cc(Cl)ccc2/C1=C/c1ccc(N2CCOCC2)s1 , thank you.
inactive

Dear all, I need the recorded test outcome for CCn1cc(C(=O)O)c(=O)c2cc(F)c(N3CCN(S(=O)(=O)c4cccc5ccccc45)CC3)cc21 , thank you.
active

Dear all, I need the recorded test outcome for COC(=O)c1ccc2nc(-c3cc4ccccc4n3C)n(CCCCOc3cc4c(cc3OC)C(=O)N3CCC[C@H]3C=N4)c2c1 , thank you.
active

Dear all, I need the recorded test outcome for CC(=O)OC[Si](C)(C)c1ccccc1 , thank you.
inactive

Dear all, I need the recorded test outcome for CCN1C(=O)N[C@H]2[C@@H]3NC(=O)c4ccc(Cl)n4[C@@H]3C[C@]21O , thank you.
active

Dear all, I need the recorded test outcome for COc1ccc(/C(=N/O)c2cc(OC)c(OC)c(OC)c2)c(OC)c1N , thank you.
inactive

Dear all, I need the recorded test outcome for CC(C)N(Cc1ccc(CN(C(=O)CCl)C(C)C)cc1)C(=O)CCl , thank you.
active

Dear all, I need the recorded test outcome for COc1ccc(-c2nc3sccn3c2-c2ccnc(NCCCNS(=O)(=O)c3ccc(C)cc3)n2)cc1 , thank you.
inactive

----------
- Test system: LOX IMVI melanoma
- assay-remarks: NCI-60 one-dose screen, 48 h
- test-context: 10 µM unless noted
This is part of a sample that, as a whole, favours compounds with a hit. Of some 83,000 tested, about 20% had one in any assay. Calls of active or inactive are those of the source. The calls were made as follows: active = growth percent below 10; inactive = the rest.
Output constraint: value belongs to y = active, n = inactive

Some solved cases for reference:
Cc1cc(C)c(NC(=O)c2sc3nc4c(cc3c2N)CN(Cc2ccccc2)CC4)c(C)c1
n
COc1cc(-c2csc(NC(=O)c3cc(C(F)(F)F)cc(C(F)(F)F)c3)n2)cc(OC)c1OC
n
CCN(CC)P(=O)(N(CC)CC)N(CCCSC/C=C(\C)CC/C=C(\C)CCC=C(C)C)CCCN1CCN(C)CC1
n
CCC(=O)Oc1cc(/C=C/C(=O)O[C@H]2C[C@H]3CN4CCc5c([nH]c6cc(OC)ccc56)[C@@H]4C[C@@H]3[C@@H](C(=O)OC)[C@@H]2OC)ccc1OC
n
COc1cc(-c2n[nH]nc2-c2ccc3c(c2)OCCO3)cc(OC)c1OC
n
COc1ncc(-c2ccc3ncnc(Nc4cccc(Cl)c4)c3c2)cc1NS(=O)(=O)CCN1CCOCC1
y

Dear all, I need the recorded test outcome for COc1ccc(-n2cnc3c(sc4ncc(Cl)cc43)c2=O)cc1 , thank you.
n

Dear all, I need the recorded test outcome for O=C(Nc1ccc(F)cc1)c1cc([N+](=O)[O-])ccc1O , thank you.
n

Dear all, I need the recorded test outcome for CCC1CCc2nc3sc(C(=O)Nc4ccccc4C)c(N)c3cc2C1 (stereo not drawn) , thank you.
n

Dear all, I need the recorded test outcome for O=C(O)c1ccc(-n2cc(CNc3ccc(C(F)(F)F)cc3)c(-c3ccccc3)n2)cc1 , thank you.
n

Dear all, I need the recorded test outcome for CCOC(=O)c1cc(/C(=N\O)c2cc(OC)c(OC)c(OC)c2)n2cc(C)cc(C)c12 , thank you.
n
